Recorded values, source PubChem BioAssay.

Attribute: composite z-score
Assay: probe aLAP1 signal on lysate-treated microarray – cell lysate, small-molecule microarray, COS7 lysate, primary screen (AID 1124);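 further: lysate comes from COS7 cells expressing LAP1 and is applied at 0.3 µg/mL; score merges spot fluorescence near 667 nm with signal-to-noise over triplicate slides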
Details: probe aLAP1, fluorescence, higher = more signal
Output spec: single numeric token, no unit.

{"Molecule": "COc1ccccc1CN1C(=O)c2ccccc2[C@@]2(Cc3ccccc3N(C3CC3)C2=O)[C@@H]1c1ccc(CO)cc1", "composite z-score": -0.978}
{"Molecule": "O=C1NC(=O)C2C1C=CC(C(O)c1ccc(-c3ccccc3)s1)N2Nc1ccccn1 (centres undefined)", "composite z-score": 1.22}

Query: Recorded composite z-score of "CCOC(=O)C[C@H]1[C@H](OC(=O)c2ccc(C(=O)c3ccccc3)cc2)[C@@H](NC(=O)C2CCCCC2)c2cc(OCCCO)ccc2N1C(=O)Cc1ccc(OC)cc1" , please.
Response: 1.04

Query: Form field: reported composite z-score of "COCCCNC(=O)[C@@]1(Cc2ccccc2CN=[N+]=[N-])N=C(c2ccc(OCCCO)cc2)O[C@H]1c1ccccc1N=[N+]=[N-]"
Response: 0.656

----------
Reported z-score values are given for each entry in this list.
Assay: ATP-based viability of Huh7 replicon cells – cell-based, CellTiter-Glo luminescence, basal, 48 h, cytotoxicity control for HCV replication inhibitor project, primary screen (AID 1143);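 further: Huh7 hepatoma cells carrying a hepatitis C replication reporter with no stimulus; test concentration not given here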
Conditions: higher = more signal, called active from +8 up or from −8 down
The answer should be a number; do not append a unit.

Past entries and their recorded results:
{"Compound": "[N-]=[N+]=NCc1ccccc1C[C@@]1(C(=O)NCCN2CCOCC2)N=C(c2ccc(OCCCO)cc2)O[C@@H]1c1ccccc1CN=[N+]=[N-]", "z-score": -2.99}
{"Compound": "CCN(CC)c1ccc(N2CC=CC34O[C@@H]5/C=C\\CCCOC(=O)C5[C@H]3C(=O)N(CCCCCO)[C@@H]4C2=O)cc1 (stereo partly drawn)", "z-score": -0.119}
{"Compound": "COc1ccc(C(=O)Nc2ccc3c(c2)[C@]2(O[C@@H](CCO)[C@H]([Si](C)(C)c4ccc(OC)cc4)[C@H]2C)C(=O)N3Cc2ccccc2)cc1", "z-score": -8.09}
{"Compound": "NC(=O)NCC#Cc1ccc2c(c1)[C@]1(C(=O)N2)[C@H](c2ccc(O)cc2)N2[C@H](c3ccccc3)[C@H](c3ccccc3)OC(=O)[C@H]2[C@@H]1C(=O)NC[C@H](O)c1ccccc1", "z-score": -0.383}
{"Compound": "CCC[C@@H]1C[C@@]1(CCC)[C@@H](NC(=O)c1cccs1)c1ccc(Cl)cc1", "z-score": -2.21}
{"Compound": "CN(C)C(=O)[C@@]1(CCS(=O)(=O)c2ccccc2)N=C(c2ccc(OCCCO)cc2)O[C@H]1c1ccccc1CN=[N+]=[N-]", "z-score": -3.95}
{"Compound": "CCCNC(=O)[C@@]1(Sc2ccc(C)cc2)CC(=O)N(Cc2ccccc2)[C@@H]1c1ccc(CO)cc1I", "z-score": -1.81}
{"Compound": "C[N+](C)(C)CCCC[C@@H]1NC(=O)[C@@H]2C[C@H](C(=O)O)[C@H](c3cccc(OCCO)c3)N2C1=O", "z-score": -0.63}
{"Compound": "COc1ccc(C(=O)Nc2ccc(CN3C(=O)[C@@]4(O[C@@H](CC(=O)N5Cc6ccccc6C[C@H]5CO)[C@H]([Si](C)(C)c5ccc(OC)cc5)[C@H]4C)c4ccccc43)cc2)cc1", "z-score": -3.32}
{"Compound": "O=C1CSC(c2cccc([N+](=O)[O-])c2)N1c1ccccc1 (stereo not drawn)", "z-score": -0.735}

Query: // returns reported z-score for input "C=C(/C(=C/C[C@@H](OC(=O)c1ccncc1)c1ccccc1OCCO)c1cnc2ccccc2c1)C(C)C"
Response: -8.34

Query: Please look up its z-score: "C=C[C@@H](O)[C@H]1CC(c2ccccc2)=NO1"
Response: 0.0011

Query: For the compound shown here, "COC(=O)[C@@]1(Cc2ccc(F)cc2)[C@H]2c3cc(C(=O)N(C)C)n(CCSCCO)c3C[C@H]2CN1C(=O)c1ccccc1" , give the reported z-score.
Response: -0.259

Query: Can you share its z-score? I mean this compound: "COC(=O)[C@@]1(Cc2ccc(OC)cc2)[C@H]2c3cc(C(=O)N4CCCC4)n(CCF)c3C[C@H]2CN1C(=O)c1ccccc1"
Response: -2.46

Query: Form field: reported z-score of "C=C(COC)/C(=C/C[C@@H](OC(=O)c1ccncc1)c1cccc(OCCO)c1)c1cc(C(=O)OC)ccc1OC"
Response: -8.13

Query: Requested field: z-score. Item: "O=C1O[C@H](c2ccccc2)[C@H](c2ccccc2)N2[C@H]1[C@@H](C(=O)N1CCN(c3ncccn3)CC1)[C@]1(C(=O)Nc3ccc(C#CCCO)cc31)[C@H]2c1ccc(OCCO)cc1"
Response: 0.505

Query: # query: z-score of entry "CCOC(=O)C[C@H]1[C@H](OC(=O)c2ccccc2-c2ccccc2)[C@@H](NC(=O)c2ccccc2)c2cc(OCCCO)ccc2N1C(=O)Cc1ccc(OC)cc1"
Response: 0.0692

Query: # lookup: z-score of N#Cc1ccc(NN2C(C(O)c3ccccc3)C=CC3C(=O)N(c4ccccc4)C(=O)C32)cc1 (stereo not drawn)
Response: 0.574

Query: Need z-score, item "COC(=O)[C@@]1(Cc2ccccc2)[C@H]2c3cc(C(=O)N4CCCC4)n(Cc4ccc(OC(F)(F)F)cc4)c3C[C@H]2CN1C(=O)c1ccccc1"
Response: -2.44

Query: Which z-score value is on record for "Cc1ccc(S[C@]2(C(=O)NCc3ccccc3)CC(=O)N(C3Cc4ccccc4C3)[C@@H]2c2ccc(CO)cc2I)cc1" ?
Response: -2.56

Query: Endpoint output: z-score of "O=C1O[C@@H](c2ccccc2)[C@@H](c2ccccc2)N2[C@@H](c3ccc(O)cc3)[C@]3(C(=O)Nc4ccc(C#CC5(O)CCCCCC5)cc43)[C@@H](C(=O)N3CCN(c4ncccn4)CC3)[C@H]12" . Value?
Response: -1.37

Query: Please give the measured z-score for this compound: Cc1cc(C)c(C(O)C2C=CC3C(=O)N(c4ccccc4)C(=O)C3N2Nc2ccc([N+](=O)[O-])cc2)c(C)c1 (stereo not drawn)
Response: -1.1

Query: For the compound CCCCC(CC)C(O)C1C=CC2C(=O)NC(=O)C2N1Nc1ccccn1 (stereo not drawn) , what z-score is on record?
Response: 0.683

Query: I am curious: what z-score value has been reported for C=CC[C@@]1(C(=O)NCC(O)CO)N=C(c2ccc(OCCCO)cc2)O[C@@H]1c1ccccc1 (stereo partly drawn) ?
Response: -0.834

Query: I am curious: what z-score value has been reported for CC[C@@H]1[C@@H]2C3C(=O)N(CC)C(=O)C3CC(=O)[C@@H]2[C@H](c2ccc(C)cc2)N1S(=O)(=O)c1ccc(C)cc1 (stereo partly drawn) ?
Response: -3.1

----------
Measured composite z-score, listed per entry for reference.
Test: binders of probe aHhip on microarray, primary screen, stem cell growth factor project, biochemical, small-molecule microarray, fluorescence 635/667 (AID 1087);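 further: score merges spot fluorescence at 667nm with spot signal to noise ratio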
Settings: higher = more signal
Kindly provide the number alone.

Below, each entry is followed by its recorded composite z-score result.
{"Molecule": "C[N+](C)(C)CCCCNC(=O)[C@H]1C[C@H]2C(=O)NCC(=O)N2[C@H]1c1ccc(O)cc1", "composite z-score": -0.156}
{"Molecule": "CCCCC(CC)C(O)C1C=CC2C(=O)NC(=O)C2N1Nc1ccccn1 (configuration not stated)", "composite z-score": 0.204}
{"Molecule": "C=C(COC)C(=O)CC[C@H](OC(=O)c1ccccc1-c1ccccc1C(=O)O)c1ccc(OCCO)cc1", "composite z-score": -0.236}
{"Molecule": "CC(C)C[C@H]1NC(=O)[C@H](C)NC(=O)[C@@]23C(=O)N[C@@H](Cc4ccccc4)C2[C@H](C)[C@@]2(C)O[C@H]2C3/C=C/C/C=C\\CNC1=O (some centres not stated)", "composite z-score": -0.54}
{"Molecule": "C=CCNC(=O)[C@@H]1[C@H]2C(=O)O[C@H](c3ccccc3)[C@H](c3ccccc3)N2[C@H](c2ccc(O)cc2)[C@@]12C(=O)Nc1ccc(C#CCCO)cc12", "composite z-score": -0.251}
{"Molecule": "CCOC(=O)C[C@H]1[C@H](OC(=O)c2ccc(C(=O)c3ccccc3)cc2)[C@@H](NC(=O)C2CCCCC2)c2cc(OCCCO)ccc2N1C(=O)Cc1ccc(OC)cc1", "composite z-score": 0.295}

Note: attention shifts to another entry.
Query: // query composite z-score value for entry CC[C@@H]1[C@@H]2C3C(=O)N(CC)C(=O)C3CC(=O)[C@@H]2[C@H](c2ccc(C)cc2)N1S(=O)(=O)c1ccc(C)cc1 (some centres not stated)
Response: -0.19

----------
Assay: resazurin metabolic signal in HepG2 cells – cell-based, resazurin fluorescence, 24 h, PK04 Diversity Set, profiling panel (AID 1172); further: test concentration not given here
Conditions: HepG2 viability, higher = more signal
Measured endpoint: z-score
No unit in the answer, only the number.

Use the examples below as a reference point.
{"Molecule": "C=C(COC)C(=O)CC[C@H](OC(=O)c1ccccc1-c1ccccc1C(=O)O)c1ccc(CO)o1", "z-score": -0.45}
{"Molecule": "CC(C)c1ccc(NN2C(C(O)c3ccccn3)C=CC3C(=O)N(c4ccccc4)C(=O)C32)cc1 (configuration not stated)", "z-score": -0.981}

Query: Report z-score for "CCCC=C(CCC)[C@@H](NS(=O)(=O)c1cccc2cccnc12)c1ccc(C(=O)OC)cc1" please.
Response: 0.582

Query: Which value of z-score has been reported for "C=C(/C(=C/C[C@@H](OC(C)=O)c1ccccc1OCCO)c1cnc2ccccc2c1)C(C)C" in the records?
Response: -1

Query: # z-score lookup, item "CCOC(=O)C[C@H]1[C@H](OC(=O)Cc2ccc3c(c2)OCO3)[C@@H](NC(=O)c2ccccc2)c2cc(OCCCO)ccc2N1C(=O)c1ccc2ccccc2n1"
Response: -0.287

Query: Report z-score for "COCCOC(=O)N1C(=O)[C@@]2(c3cc(C#CCNC(N)=O)ccc31)[C@H](C(=O)N1CCCCCCC1)[C@H]1C(=O)O[C@H](c3ccccc3)[C@H](c3ccccc3)N1[C@@H]2c1ccc(OCCO)cc1" please.
Response: -0.178

Query: Record request: z-score value, item "CC(C)CN1C(=O)[C@@]2(Cc3ccccc31)c1ccccc1C(=O)N(Cc1ccccc1)[C@H]2c1ccc(CO)cc1"
Response: -0.436
